// data source = patent US7491844B2

# ASSAYED SYSTEM: hEP4/Gqs5 (Homo sapiens)
# Construct: expressed in transfected cells; host or cells: HEK-293(EBNA)
# Sequence (P35408 whole entry): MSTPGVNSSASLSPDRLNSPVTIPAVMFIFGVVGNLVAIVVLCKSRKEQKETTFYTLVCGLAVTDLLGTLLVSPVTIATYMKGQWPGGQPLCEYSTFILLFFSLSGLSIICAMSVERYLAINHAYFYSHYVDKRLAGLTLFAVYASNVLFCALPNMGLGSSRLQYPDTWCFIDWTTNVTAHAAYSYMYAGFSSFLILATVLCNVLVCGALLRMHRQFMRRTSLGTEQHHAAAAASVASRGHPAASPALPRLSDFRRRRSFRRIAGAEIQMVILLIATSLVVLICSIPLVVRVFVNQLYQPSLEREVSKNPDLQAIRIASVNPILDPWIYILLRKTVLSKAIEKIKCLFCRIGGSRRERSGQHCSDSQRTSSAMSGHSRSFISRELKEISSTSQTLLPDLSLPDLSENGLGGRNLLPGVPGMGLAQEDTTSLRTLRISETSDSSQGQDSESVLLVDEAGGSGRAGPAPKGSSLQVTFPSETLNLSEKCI
# METHOD NOTES: FLIPR calcium signal, HEK-293(EBNA) cells
# Format: cell-based
# CONDITIONS: read-out: Ca2+ Signal-EC50 (nM) EP4
TEST READOUT: EC50

The compound CCCCCC(O)c1ccc([C@@H]2[C@@H](C/C=C\CCCC(=O)O)[C@H](Cl)C[C@@H]2Cl)cc1 (stereo partly shown) showed EC50 equal to > 10000 nM
